Give Mean % WT Binding for every item shown.
# SYSTEM_NAME: human CD33 P155A (human, UniProt P20138 18-364)
# Sequence (P20138 18-364 P155A limits assumed): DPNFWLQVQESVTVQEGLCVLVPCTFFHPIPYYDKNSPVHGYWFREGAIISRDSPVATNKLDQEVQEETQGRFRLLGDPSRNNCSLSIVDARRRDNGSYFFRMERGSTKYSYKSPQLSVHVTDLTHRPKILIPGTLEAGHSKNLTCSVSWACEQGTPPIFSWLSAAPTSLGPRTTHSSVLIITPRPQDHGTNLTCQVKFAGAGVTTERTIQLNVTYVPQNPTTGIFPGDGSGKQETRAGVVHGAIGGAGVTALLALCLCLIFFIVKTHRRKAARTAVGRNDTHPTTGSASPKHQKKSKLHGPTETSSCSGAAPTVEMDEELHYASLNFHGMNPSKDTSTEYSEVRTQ
# PROCEDURE_SUMMARY: flow cytometry on HEK293-T, alanine scan
Numbers only, in % WT binding.

Here are 4 binders. What values of Mean % WT Binding were reported for them?
1. Refmab #3 (antibody, V domains shown, The alanine scan used IgG or Fab) VH: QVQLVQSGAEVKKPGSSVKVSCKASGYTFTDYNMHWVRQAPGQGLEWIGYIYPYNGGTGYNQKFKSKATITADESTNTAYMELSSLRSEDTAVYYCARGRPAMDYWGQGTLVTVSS VL: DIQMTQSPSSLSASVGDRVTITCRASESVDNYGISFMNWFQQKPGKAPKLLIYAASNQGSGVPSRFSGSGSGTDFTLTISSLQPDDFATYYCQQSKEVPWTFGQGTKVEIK
2. Refmab #1 (antibody, V domains shown, The alanine scan used IgG or Fab; also called hP67.6) VH: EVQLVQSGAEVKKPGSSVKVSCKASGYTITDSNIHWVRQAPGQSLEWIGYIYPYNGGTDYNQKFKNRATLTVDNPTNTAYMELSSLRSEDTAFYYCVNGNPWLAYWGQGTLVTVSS VL: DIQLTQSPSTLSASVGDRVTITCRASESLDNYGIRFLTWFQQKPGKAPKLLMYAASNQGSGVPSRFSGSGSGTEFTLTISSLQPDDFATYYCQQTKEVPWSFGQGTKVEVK
3. Refmab #2 (antibody, V domains shown, The alanine scan used IgG or Fab) VH: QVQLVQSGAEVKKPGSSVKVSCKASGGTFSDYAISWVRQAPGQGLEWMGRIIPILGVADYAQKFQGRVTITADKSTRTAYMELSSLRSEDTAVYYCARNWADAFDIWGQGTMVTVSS VL: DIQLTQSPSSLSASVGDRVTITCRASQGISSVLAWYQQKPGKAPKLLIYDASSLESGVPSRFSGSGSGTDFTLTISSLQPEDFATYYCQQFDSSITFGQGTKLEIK
4. Refmab #4 (antibody, V domains shown, The alanine scan used IgG or Fab) VH: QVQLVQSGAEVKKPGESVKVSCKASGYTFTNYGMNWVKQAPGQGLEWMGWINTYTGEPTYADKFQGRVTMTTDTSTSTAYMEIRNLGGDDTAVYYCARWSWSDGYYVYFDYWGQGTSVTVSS VL: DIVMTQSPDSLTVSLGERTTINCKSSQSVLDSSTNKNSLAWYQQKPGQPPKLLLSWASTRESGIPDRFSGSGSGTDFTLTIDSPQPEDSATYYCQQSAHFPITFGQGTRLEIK

1. 114
2. 84.4
3. 126
4. 111
